Values were extracted from patent US9695155B2.

Tested on: kochia
Assay: Test A preemergence
Assay type: in vivo, Kochia scoparia
Conditions: 125 g ai/ha, 0 to 100 scale where 0 is no effect and 100 is complete control
Reported Plant response rating, Kochia values follow for various compounds

>>> val("CC(C)Oc1cnn(-c2c(Br)cccc2Oc2ncc(Cl)cn2)c1 [Compound 148]")
0
>>> val("FC(F)(F)COc1cnn(-c2c(Br)cccc2Oc2ncc(Cl)cn2)c1 [Compound 128]")
70
>>> val("CCCOc1cnn(-c2c(C#N)cccc2Oc2ncc(Cl)cn2)c1 [Compound 150]")
100
>>> val("CC(C)Oc1cnn(-c2c(C#N)cccc2Oc2ncc(F)cn2)c1 [Compound 158]")
70

Read off the recorded Plant response rating, Kochia for N#Cc1cccc(Oc2ncc(Br)cn2)c1-n1cc(I)cn1 [Compound 88] 100

###

Test system: corn
Test: Test A postemergence
Format: in vivo, Zea mays
Details: 1000 g ai/ha, 0 to 100 scale, 0 no effect, 100 complete control
Excerpt: […]
Reported Plant response rating, Corn values follow for various compounds
Answer with the value's number alone.

>>> val("CC(=NO)c1cn(-c2c(Br)cccc2Oc2ncc(Cl)cn2)nn1")
90
>>> val("CCOC(=O)c1cn(-c2ccccc2Oc2ncc(Cl)cn2)nn1")
0
>>> val("CN(C)C(=O)c1cccc(Oc2ncc(Cl)cn2)c1-n1cc(C(F)(F)F)cn1")
0
>>> val("COC(=O)c1cccc(Oc2ncc(Cl)cn2)c1-n1cc(C(F)(F)F)cn1")
80
>>> val("COc1ccc(I)c(-n2cc(Br)cn2)c1Oc1ncc(Cl)cn1")
0

Read off the recorded Plant response rating, Corn for "CC(C)(C)NS(=O)(=O)c1cnn(-c2ccccc2Oc2ncc(Cl)cn2)c1" 0

Read off the recorded Plant response rating, Corn for "CCN(C)C(=O)c1cccc(Oc2ncc(Cl)cn2)c1-n1cc(C(F)(F)F)cn1" 0

###

Reported Kochia plant response rating (0 to 100 scale) values follow for various molecules
Tested on: kochia
Test: Test A preemergence
Type: in vivo, Kochia scoparia
Settings: 31 g ai/ha
Answer with the value's number alone.

>>> val("Fc1cnc(Oc2cccc(F)c2-n2cc(OCC(F)(F)F)cn2)nc1")
40

Read off the recorded Kochia plant response rating (0 to 100 scale) for "CC(C)Cc1cn(-c2c(F)cccc2Oc2ncc(Cl)cn2)nn1" 0

Read off the recorded Kochia plant response rating (0 to 100 scale) for "FCc1cccc(Oc2ncc(F)cn2)c1-n1cc(C(F)(F)F)cn1" 100

Read off the recorded Kochia plant response rating (0 to 100 scale) for "Fc1cccc(Oc2ncc(Cl)cn2)c1-n1cc(C2CCCC2)nn1" 0

Read off the recorded Kochia plant response rating (0 to 100 scale) for "CC(C)Oc1cnn(-c2c(Cl)cccc2Oc2ncc(Cl)cn2)c1" 0

###

Tested on: kochia
Test: Test C postemergence
Type: in vivo, Kochia scoparia
Conditions: 125 g ai/ha, postemergence
Reported Plant response rating (0 to 100), Kochia values follow for various compounds
Answer with the value's number alone.

>>> val("N#Cc1cccc(Oc2ncc(F)cn2)c1-n1cc(I)cn1")
95
>>> val("CCOc1cnn(-c2c(C#N)cccc2Oc2ncc(Cl)cn2)c1")
85
>>> val("N#Cc1cccc(Oc2ncc(Br)cn2)c1-n1cc(I)cn1")
100

Read off the recorded Plant response rating (0 to 100), Kochia for "CCOc1cn(-c2c(Br)cccc2Oc2ncc(Cl)cn2)nn1" 80

###

Tested on: giant foxtail
Assay: Test C preemergence
Assay type: in vivo, Setaria faberii
Settings: Preemergence, 31 g ai/ha; scale 0 to 100, 0 no effect, 100 complete control
Reported Plant response rating, Foxtail, Giant values follow for various compounds
Answer with the value's number alone.

>>> val("N#Cc1cnn(-c2c(CF)cccc2Oc2ncc(F)cn2)c1")
35
>>> val("Clc1cnc(Oc2cccc(Br)c2-n2cc(Br)nn2)nc1")
80
>>> val("CCCOc1cnn(-c2c(C#N)cccc2Oc2ncc(Cl)cn2)c1")
75

Then this compound:
Read off the recorded Plant response rating, Foxtail, Giant for "Cc1cnc(Oc2cccc(C#N)c2-n2cc(I)cn2)nc1" 5

###

Reported Crabgrass, Brazil plant response rating values follow for various compounds
Test system: Brazilian crabgrass
Assay: Test E preemergence
Format: in vivo, Digitaria horizontalis
Settings: 16 g ai/ha, scale 0 to 100 (0 no effect, 100 complete control)
Answer with the value's number alone.

The cases that follow already have their Crabgrass, Brazil plant response rating on record.
>>> val("FC(F)(F)c1cnn(-c2c(Cl)cccc2Oc2ncc(Cl)cn2)c1")
0
>>> val("Fc1cccc(Oc2ncc(Cl)cn2)c1-n1cc(I)cn1")
0
>>> val("N#Cc1cccc(Oc2ncc(Br)cn2)c1-n1cc(I)cn1")
0

Read off the recorded Crabgrass, Brazil plant response rating for "Clc1cnc(Oc2ccccc2-n2cc(Br)cn2)nc1" 0

Read off the recorded Crabgrass, Brazil plant response rating for "N#Cc1cccc(Oc2ncc(F)cn2)c1-n1cc(Cl)cn1" 25

Read off the recorded Crabgrass, Brazil plant response rating for "FC(F)(F)c1cnn(-c2ccccc2Oc2ncc(Br)cn2)c1" 0

###

Reported Plant response rating, Galium values follow for various compounds
Test system: galium
Test: Test A postemergence
Format: in vivo, Galium aparine
Details: 31 g ai/ha, 0 to 100 scale, 0 no effect, 100 complete control
Answer with the value's number alone.

>>> val("N#Cc1cnn(-c2c(CF)cccc2Oc2ncc(F)cn2)c1")
10
>>> val("CC(C)Oc1cnn(-c2c(Br)cccc2Oc2ncc(F)cn2)c1")
20

Then this compound:
Tell me Plant response rating, Galium of "CC(C)Oc1cnn(-c2c(C#N)cccc2Oc2ncc(F)cn2)c1" when tested on galium. 60

###

Test system: velvetleaf
Test: Test A preemergence
Assay type: in vivo, Abutilon theophrasti
Details: 125 g ai/ha
Reported Velvetleaf plant response rating (0 to 100 scale) values follow for various compounds

The cases that follow already have their Velvetleaf plant response rating (0 to 100 scale) on record.
>>> val("C#Cc1cnn(-c2ccccc2Oc2ncc(Cl)cn2)c1 [Compound 188]")
70
>>> val("FC(F)c1cccc(Oc2ncc(Br)cn2)c1-n1cc(Br)cn1 [Compound 231]")
0

Read off the recorded Velvetleaf plant response rating (0 to 100 scale) for O=Cc1cccc(Oc2ncc(Br)cn2)c1-n1cc(I)cn1 [Compound 183] 0

Read off the recorded Velvetleaf plant response rating (0 to 100 scale) for N#Cc1cnc(Oc2cccc(C(F)F)c2-n2cc(Br)cn2)nc1 [Compound 175] 0

Read off the recorded Velvetleaf plant response rating (0 to 100 scale) for Clc1cnc(Oc2cccc(-c3ccccc3)c2-n2cc(Br)cn2)nc1 [Compound 195] 0

###

System: galium
Experiment: Test C preemergence
Assay type: in vivo, Galium aparine
Settings: 62 g ai/ha, preemergence; scale 0 (no effect) to 100 (complete control)
measurement.type: Galium plant response rating
Answer with the value's number alone.

The cases that follow already have their Galium plant response rating on record.
>>> val("COc1cnn(-c2c(C#N)cccc2Oc2ncc(Cl)cn2)c1")
10
>>> val("N#Cc1cnn(-c2c(C#N)cccc2Oc2ncc(F)cn2)c1")
100
>>> val("CCOc1cnn(-c2c(C#N)cccc2Oc2ncc(F)cn2)c1")
85
>>> val("FCc1cccc(Oc2ncc(Cl)cn2)c1-n1cc(Br)cn1")
85

Then this compound:
Tell me Galium plant response rating of "CCOc1cn(-c2c(Br)cccc2Oc2ncc(Cl)cn2)nn1" when tested on galium. 100

###

Tested on: large (Lg) crabgrass
Test: Test C postemergence
Assay type: in vivo, Digitaria sanguinalis
Details: 125 g ai/ha, postemergence; visual rating, scale 0 to 100 (0 no effect, 100 complete control)
measurement.type: Plant response rating, Crabgrass, Large
Answer with the value's number alone.

The cases that follow already have their Plant response rating, Crabgrass, Large on record.
>>> val("FC(F)(F)c1cnn(-c2c(Cl)cccc2Oc2ncc(Cl)cn2)c1")
10
>>> val("CCCOc1cnn(-c2c(C#N)cccc2Oc2ncc(Cl)cn2)c1")
10
>>> val("N#Cc1cccc(Oc2ncc(Cl)cn2)c1-n1cc(-n2ccc(C(F)(F)F)n2)cn1")
10
>>> val("N#Cc1cn(-c2c(Br)cccc2Oc2ncc(Cl)cn2)nn1")
30

Read off the recorded Plant response rating, Crabgrass, Large for "Cc1cnc(Oc2cccc(C#N)c2-n2cc(I)cn2)nc1" 15

Read off the recorded Plant response rating, Crabgrass, Large for "N#Cc1cnn(-c2c(C#N)cccc2Oc2ncc(F)cn2)c1" 35

Read off the recorded Plant response rating, Crabgrass, Large for "N#Cc1cnn(-c2c(Oc3ncc(Cl)cn3)cccc2C(F)F)c1" 5

###

Tested on: kochia
Assay: Test A preemergence
Format: in vivo, Kochia scoparia
Details: 125 g ai/ha
Source text: […]
measurement.type: Kochia plant response rating (0 to 100 scale)
Answer with the value's number alone.

The cases that follow already have their Kochia plant response rating (0 to 100 scale) on record.
>>> val("N#Cc1cccc(Oc2ncc(Cl)cn2)c1-n1cnc(C(F)(F)F)c1")
100
>>> val("Clc1cnc(Oc2ccccc2-n2cccc2)nc1")
0
>>> val("CC(C)Oc1cnn(-c2c(C#N)cccc2Oc2ncc(Br)cn2)c1")
80
>>> val("Fc1cnc(Oc2ccccc2-n2cc(OCC(F)(F)F)cn2)nc1")
100

Read off the recorded Kochia plant response rating (0 to 100 scale) for "Cc1cc(C(F)F)nn1-c1ccccc1Oc1ncc(Cl)cn1" 0

Read off the recorded Kochia plant response rating (0 to 100 scale) for "NC(=O)c1cccc(Oc2ncc(Cl)cn2)c1-n1cc(C(F)(F)F)cn1" 0

Read off the recorded Kochia plant response rating (0 to 100 scale) for "Fc1cccc(Oc2ncc(Cl)cn2)c1-n1cc(-c2ccsc2)nn1" 0
